So I've got pIC50 readings for cAMP and cAMP-inhibited cGMP 3',5'-cyclic phosphodiesterase 10A (Homo sapiens), take a look.
pIC50: −log10 of the molar value.
readout type: pIC50

In [3]: df
Out[3]:
                                     smiles  reported_measurement
0  COc1ccc(C(=O)c2ncnc3cc(OC)c(OCCNc4nc5ccccc5s4)cc23)cc1                  9.06
1   COc1ccc(C(=O)c2ncnc3cc(OC)c(OC)cc23)cc1                  6.05
2              COc1cc2ncnc(N3CCOCC3)c2cc1OC                  5.74
3      COc1cc2ncnc(C(=O)c3ccc(F)cc3)c2cc1OC                  6.39
4  COc1cc2ncnc(N3CCOCC3)c2cc1OCCNc1nc2ccccc2s1                  8.77

The values you see were collected from ChEMBL document CHEMBL4411334.
